protein stability index overview
B1: DVL3 (parent)
chain: HPDPAPFCADNPSELPPPMERTGG

# Variants of: B1
# experimentNotes: protein stability index of a GFP-peptide fusion (GPS, HEK-293T) (PSI 1-6); higher = more stable;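 note: lentivirally expressed fusions sorted by FACS into six bins by GFP to DsRed ratio, PSI derived from sequencing read proportions per bin multiplied by bin number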
# measurementSetup: c terminus: a fixed tail appended

variantKey	protein stability index
D3V	3.39
P2M	2.04
A5L	2.77
P2S	3.51
P17W	2.54
P4N	5.35
E20G	1.73
P18G	2.79
P18D	3.27
P6T	3.92
P18H	2.69
G24S	3.1
P6V	2.73
G23V	2.47
P17F	2.4
P12W	2.17
P17L	2.76
T22K	2.85
F7R	5.23
H1K	5.2
P16E	3.09
P6R	2.91
P16H	2.58
P4D	5.64
P16G	3.1
H1E	5.45
P4Q	5.3
P18A	2.48
P2G	5.4
T22A	3.02
P18L	2.95
P12N	2.42
P18R	2.8
T22M	2.96
P17V	2.82
P6Y	2.46
P16V	2.9
P18F	2.7
P18T	3.12
P17G	2.6
P6L	2.83
P17C	2.52
P4S	5.24
D3M	3.42
T22G	2.5
P6S	3.14
P4A	4.6
P4Y	4.58
C8R	2.62
P18S	3.05
A9G	3.27
P2A	2.08
P4M	5.22
P4V	5.14
T22Q	2.78
P17A	2.73
A5D	3.82
P6C	3.01
P6F	2.48
P18Y	2.61
A5W	2.41
C8V	2.84
A5R	2.29
P6D	5.21
G23W	2.07
P4G	4.94
P12R	2.95
